test target: human sAC (Homo sapiens)
Construct: made in house
Sequence (Q96PN6 1-469 limits assumed): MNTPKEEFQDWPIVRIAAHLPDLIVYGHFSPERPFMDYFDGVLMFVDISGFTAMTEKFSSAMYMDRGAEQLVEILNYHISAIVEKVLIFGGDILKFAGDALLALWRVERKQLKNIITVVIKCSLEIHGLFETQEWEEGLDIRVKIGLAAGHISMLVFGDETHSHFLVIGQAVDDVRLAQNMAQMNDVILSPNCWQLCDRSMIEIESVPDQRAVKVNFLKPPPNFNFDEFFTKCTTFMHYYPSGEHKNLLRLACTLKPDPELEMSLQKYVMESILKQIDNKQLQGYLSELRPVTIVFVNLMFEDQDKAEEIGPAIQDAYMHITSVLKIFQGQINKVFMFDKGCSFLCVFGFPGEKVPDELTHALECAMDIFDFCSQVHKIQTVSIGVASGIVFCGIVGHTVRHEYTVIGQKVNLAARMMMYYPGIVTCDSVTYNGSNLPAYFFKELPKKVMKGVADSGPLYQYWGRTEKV
assay summary: cellular cAMP accumulation assay in 4-4 cells (hsACt stably transfected into 293T), IBMX
Assay type: cell-based
assay setup: stable cell line overexpressing human sAC; 500 μM IBMX; read-out: 4-4, Basal approximate IC50 (or the dose range where the IC50 should lie)
property label: pIC50
When answering, recall that pIC50 equals minus log10 of the concentration in mol/L, and write that number alone.

Ask | Looking for the measured pIC50 of O=C(CSc1nc2ccccc2[nH]1)N/N=C/c1cccc(Br)c1 , can you help?
Reply | 4.82

Ask | Looking for the measured pIC50 of O=C(CSc1nc2ccccc2[nH]1)N/N=C/c1ccc(Cl)cc1Cl , can you help?
Reply | 4.82

Ask | Looking for the measured pIC50 of O=C(CSc1nc2ccccc2[nH]1)NCCc1ccccc1 , can you help?
Reply | 4.00
